Reported EC50 values for the following compounds.
test system: SH-SY5Y; assay: Neuroprotection against beta-amyloid peptide 1-42-induced toxicity in human SH-SY5Y cells assessed as lactate dehydrogenase release; type: functional, cell-based
Quick reminder: number only, in µM, skip the unit.

Look over these answered cases.
1. O=C(O[C@@H]1Cc2c(O)cc(O)cc2O[C@@H]1c1cc(O)c(O)c(O)c1)c1cc(O)c(O)c(O)c1 [EPIGALOCATECHIN GALLATE] ... 0.0399
2. CC1=C(O)C(=O)C=C2C1=CC=C1[C@@]2(C)CC[C@@]2(C)[C@@H]3C[C@](C)(C(=O)O)CC[C@]3(C)CC[C@]12C ... 0.0376
3. CO[C@@H]1[C@@H](O)[C@@H](O)[C@H](Oc2ccc3cc(NC(C)=O)c(=O)oc3c2)OC1(C)C ... 0.00485
4. CC(=O)O[C@@H]1C[C@H]2C(C)(C)C(=O)C=C[C@]2(C)[C@H]2CC[C@@]3(C)[C@H](c4ccoc4)OC(=O)[C@H]4O[C@]43[C@@]21C ... 0.039

input: Tell me reported EC50 for COC1=C2C[C@@H](C)C[C@H](OC)[C@H](O)[C@@H](C)/C=C(\C)[C@H](OC(N)=O)[C@@H](OC)/C=C\C=C(/C)C(=O)NC(=CC1=O)C2=O , tested with SH-SY5Y.
output: 0.0427

input: Enter reported EC50 observed with SH-SY5Y for CO[C@@H]1[C@@H](O)[C@@H](O)[C@H](Oc2ccc3cc(NC(C)=O)c(=O)oc3c2C)OC1(C)C
output: 0.00149

input: Reported EC50 for SH-SY5Y, given CO[C@@H]1[C@@H](OC(N)=O)[C@@H](O)[C@H](Oc2ccc3c(O)c(NC(=O)c4ccc(O)c(CC=C(C)C)c4)c(=O)oc3c2C)OC1(C)C ?
output: 0.0484

input: Lab note: need EC50 with SH-SY5Y for entry CO[C@@H]1[C@@H](O)[C@@H](O)[C@H](Oc2ccc3cc(NC(=O)CCCCCCC(=O)Nc4cc5ccc(O[C@@H]6OC(C)(C)[C@H](OC)[C@@H](O)[C@H]6O)c(C)c5oc4=O)c(=O)oc3c2C)OC1(C)C , please look it up.
output: 0.00448
